Biological target: human RXFP1 (Homo sapiens)
Sequence (Q9HBX9 whole entry): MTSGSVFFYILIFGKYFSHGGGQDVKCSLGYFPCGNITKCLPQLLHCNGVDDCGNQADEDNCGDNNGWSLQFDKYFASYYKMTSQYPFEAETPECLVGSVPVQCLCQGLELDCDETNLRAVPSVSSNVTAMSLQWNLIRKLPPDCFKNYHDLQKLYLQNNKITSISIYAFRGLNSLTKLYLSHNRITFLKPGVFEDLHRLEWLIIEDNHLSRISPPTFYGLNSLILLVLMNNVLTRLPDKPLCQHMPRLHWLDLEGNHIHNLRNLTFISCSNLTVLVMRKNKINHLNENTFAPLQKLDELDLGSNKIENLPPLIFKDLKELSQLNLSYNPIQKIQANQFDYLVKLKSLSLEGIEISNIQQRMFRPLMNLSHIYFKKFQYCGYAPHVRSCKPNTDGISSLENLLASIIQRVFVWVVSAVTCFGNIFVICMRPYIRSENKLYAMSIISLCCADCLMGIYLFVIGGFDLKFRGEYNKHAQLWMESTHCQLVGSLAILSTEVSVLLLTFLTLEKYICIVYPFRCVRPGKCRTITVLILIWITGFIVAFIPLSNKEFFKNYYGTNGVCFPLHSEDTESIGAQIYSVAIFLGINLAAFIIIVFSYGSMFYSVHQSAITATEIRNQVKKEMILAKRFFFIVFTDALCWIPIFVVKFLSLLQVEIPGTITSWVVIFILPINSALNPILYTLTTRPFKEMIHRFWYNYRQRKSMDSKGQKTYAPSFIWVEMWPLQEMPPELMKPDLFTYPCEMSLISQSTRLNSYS
Assay: RXFP1 Hu cAMP (Test A)
Assay type: cell-based
Set-up: expressed in transfected cells; host or cells: Jump-In T-REx CHO-K1 cells (ThermoFisher), induced with 10 ng/ml doxycycline for 24 h
Settings: RXFP1 Hu cAMP
ASSAY ENDPOINT: Test A Sinf (%)

{"COMPOUND": "COc1cc(Cl)c(O[C@H]2CC[C@@](C)(C(=O)O)CC2)cc1C(=O)N[C@@H]1[C@H]2CC[C@H](C2)[C@@H]1C(=O)NC12CC(F)(C1)C2", "VALUE UNITS": "%", "Test A Sinf": 108}
{"COMPOUND": "CCCCCCNC(=O)[C@H]1[C@@H]2CC[C@@H](C2)[C@H]1NC(=O)c1cc(O[C@H]2CC[C@@](C)(C(=O)O)CC2)c(C#N)cc1OC", "VALUE UNITS": "%", "Test A Sinf": 100}
{"COMPOUND": "CCOCC1(CNC(=O)[C@H]2[C@@H]3CC[C@@H](C3)[C@H]2NC(=O)c2cc(O[C@H]3CC[C@@](C)(C(=O)O)CC3)c(C#N)cc2OC)CCC1", "VALUE UNITS": "%", "Test A Sinf": 122}
{"COMPOUND": "COc1cc(F)c(O[C@H]2CC[C@H](NS(C)(=O)=O)CC2)cc1C(=O)N[C@@H]1[C@H]2CC[C@H](C2)[C@@H]1C(=O)Nc1cccc(S(=O)(=O)C(F)(F)F)c1", "VALUE UNITS": "%", "Test A Sinf": 103}
{"COMPOUND": "COc1cc(C#N)c(O[C@H]2CC[C@@](C)(C(=O)O)CC2)cc1C(=O)N[C@@H]1[C@H]2CC[C@H](C2)[C@@H]1C(=O)NC(C)(C)C", "VALUE UNITS": "%", "Test A Sinf": 113}
{"COMPOUND": "COc1cc(C#N)c(O[C@H]2CC[C@@](C)(C(=O)O)CC2)cc1C(=O)NC1C2CCC(CC2)C1C(=O)NCC1(C)CCC1 (single isomer, unassigned)", "VALUE UNITS": "%", "Test A Sinf": 100}
{"COMPOUND": "COc1cc(F)c(O[C@H]2CC[C@@](C)(C(=O)O)CC2)cc1C(=O)Nc1c(C)cccc1C(=O)NCC1(C)CCC1", "VALUE UNITS": "%", "Test A Sinf": 97}
{"COMPOUND": "COc1cc(F)c(O[C@H]2CC[C@@H](C(=O)O)CC2)cc1C(=O)N[C@@H]1[C@H]2CC[C@H](C2)[C@@H]1C(=O)NCCC1CC1", "VALUE UNITS": "%", "Test A Sinf": 75}
{"COMPOUND": "COc1cc(F)c(-c2ccc(OCC(=O)O)cc2)cc1C(=O)N[C@@H]1[C@H]2CC[C@H](C2)[C@@H]1C(=O)Nc1cccc(S(=O)(=O)C(F)(F)F)c1", "VALUE UNITS": "%", "Test A Sinf": 96}
{"COMPOUND": "COc1cc(F)c(OCCCCC(=O)O)cc1C(=O)N[C@H]1[C@@H](C(=O)Nc2cccc(S(=O)(=O)C(F)(F)F)c2)[C@@H]2C=C[C@H]1C2 (racemic)", "VALUE UNITS": "%", "Test A Sinf": 127}
{"COMPOUND": "CCOc1cc(F)c(O[C@H]2CC[C@@](C)(C(=O)O)CC2)cc1C(=O)N[C@@H]1[C@H]2CC[C@H](C2)[C@@H]1C(=O)NCC1(C)CCC1", "VALUE UNITS": "%", "Test A Sinf": 106}
{"COMPOUND": "COc1cc(F)c(O[C@H]2CC[C@@H](C(=O)O)CC2)cc1C(=O)N[C@@H]1[C@H]2CC[C@H](C2)[C@@H]1C(=O)Nc1cccc(OC(F)F)c1", "VALUE UNITS": "%", "Test A Sinf": 131}
{"COMPOUND": "COc1cc(F)c(O[C@H]2CC[C@@](F)(C(=O)O)CC2)cc1C(=O)N[C@@H]1[C@H]2CC[C@H](C2)[C@@H]1C(=O)Nc1cccc(S(=O)(=O)C(F)(F)F)c1", "VALUE UNITS": "%", "Test A Sinf": 103}
{"COMPOUND": "COc1cc(C#N)c(OCCCC(C)(C)C(=O)O)cc1C(=O)N[C@@H]1[C@H]2CC[C@H](C2)[C@@H]1C(=O)NCC1(C)CCC1", "VALUE UNITS": "%", "Test A Sinf": 115}
{"COMPOUND": "COc1cc(F)c(O[C@H]2CC[C@@](C)(C(=O)O)CC2)cc1C(=O)N[C@H]1C[C@@H](OC)C[C@H]1C(=O)Nc1cccc(S(=O)(=O)C(F)(F)F)c1 (stereo in doubt)", "VALUE UNITS": "%", "Test A Sinf": 95}
{"COMPOUND": "COc1cc(F)c(O[C@H]2CC[C@@](C)(C(=O)O)CC2)cc1C(=O)N[C@@H]1[C@H]2CC[C@H](C2)[C@@H]1C(=O)N[C@H](C)C1(C)CC1 (racemic)", "VALUE UNITS": "%", "Test A Sinf": 96}
{"COMPOUND": "COc1cc(C#N)c(O[C@H]2CC[C@@](C)(C(=O)O)CC2)cc1C(=O)N[C@@H]1[C@H]2CC[C@H](C2)[C@@H]1C(=O)NCCCC1CC1", "VALUE UNITS": "%", "Test A Sinf": 113}
{"COMPOUND": "COc1cc(F)c(O[C@H]2CC[C@@](C)(C(=O)O)CC2)cc1C(=O)N[C@@H]1CC[C@@H]1C(=O)Nc1ccc(F)c(C(F)(F)F)c1", "VALUE UNITS": "%", "Test A Sinf": 112}
{"COMPOUND": "COc1cc(F)c(O[C@H]2CC[C@@H](C(=O)O)CC2)cc1C(=O)NC1=C(C(=O)Nc2ccc(F)c(C(F)(F)F)c2)CCCC1", "VALUE UNITS": "%", "Test A Sinf": 98}
{"COMPOUND": "COc1cc(F)c(O[C@H]2CC[C@@](C)(C(=O)O)CC2)cc1C(=O)N[C@@H]1[C@H]2CC[C@H](C2)[C@@H]1C(=O)NCC1(F)CCC1", "VALUE UNITS": "%", "Test A Sinf": 108}
{"COMPOUND": "COc1cc(C#N)c(O[C@H]2CC[C@@](C)(C(=O)O)CC2)cc1C(=O)N[C@@H]1[C@H]2CC[C@H](C2)[C@@H]1C(=O)NCC1(CO)CCC1", "VALUE UNITS": "%", "Test A Sinf": 110}
{"COMPOUND": "COc1cc(C#N)c(O[C@H]2CC[C@@](C)(C(=O)O)CC2)cc1C(=O)NC1C2CCC(O2)C1C(=O)NCC1(C)CCC1 (single isomer, unassigned)", "VALUE UNITS": "%", "Test A Sinf": 106}
